These measurements were taken from patent EP4722219A1.

tested on: VCaP cells; assay: Inhibition of VCaP cell proliferation (WST-8); assay type: cell-based; settings: Homo sapiens, 168 hours
experimental-readout: IC50 (nM)
Answer with a number only, understood to be in nM.

INSERT INTO assay_data (compound, numeric_readout) VALUES
  ('Cn1c(=O)n(C2CCC(=O)NC2=O)c2ccc3c(c21)OCC31CCN(C2CCN(c3ccc(C(=O)N[C@H]4CC[C@H](Oc5ccc(C#N)c(Cl)c5)CC4)nn3)CC2)CC1 (stereo partly drawn) [A-P-23]', 0.046),
  ('COc1cc2c(cc1C(=O)N[C@H]1CCC(=O)NC1=O)CCC1(CCN(CC3CCN(c4ccc(N5CCC6(CC5)C[C@H](C)N(c5ccc(C#N)c(Cl)c5)C6)cc4)CC3)CC1)O2 [A-P-54]', 7);

Q. Looking for the measured IC50 of COc1cc(O[C@H]2C(C)(C)[C@H](NC(=O)c3ccc(N4CCC(C)(CN5CCC6(CCc7cc(C(=O)N[C@H]8CCC(=O)NC8=O)c(F)cc7O6)CC5)CC4)nc3)C2(C)C)ccc1C#N [A-P-49] , can you help?
A. 41
